Below: a set of entries, each annotated with reported IRF Lucia reporter activity.
tested on: RAW-Dual; assay: IRF Lucia reporter activity, fold change vs agonist alone; cytotoxicity flag (confluency mask): not cytotoxic; higher = enhanced IRF activity; conditions: agonist: 3'3'-cGAMP (STING) 10 ug/mL
Whole data set: some 2,900 compounds, median “IRF Lucia reporter activity, fold change vs agonist alone” near 0.9, cut for the highest 2% near 2.8. The entries come from a sample that favours the highest values as a whole.
endpointName: IRF Lucia reporter activity

* Cc1cc(N2CCN(C3CNC(C(=O)N4CCSC4)C3)CC2)n(-c2ccccc2)n1 (stereo not given) (library stock concentration (final ~1000-fold dilution): 10 mM) | 0.982
* O=c1cc(N2CCOCC2)oc2c(-c3ccc4c(c3)OCCO4)csc12 (library stock concentration (final ~1000-fold dilution): 10 mM) | 0.12
* CCC(=O)N1CCC(Nc2ncnc3c2CN(c2cnc(OC)c(C(F)(F)F)c2)CC3)C1 (stereo not given) (library stock concentration (final ~1000-fold dilution): 10 mM) | 0.908
* O=c1cc(-c2cccc3c2Sc2ccccc2S3)oc(N2CCOCC2)c1 (library stock concentration (final ~1000-fold dilution): 10 mM) | 0.647
* Cc1cc(C(=O)NC(C)(C)C)cc(C#Cc2ccc3c4c(oc3c2)C(C)(C)c2cc(NS(C)(=O)=O)ccc2C4=O)n1 (library stock concentration (final ~1000-fold dilution): 10 mM) | 0.196

---

system: RAW-Dual; test: IRF Lucia reporter activity, fold change vs agonist alone; cytotoxicity flag (confluency mask): not cytotoxic; higher = enhanced IRF activity; conditions: agonist: 3'3'-cGAMP (STING) 10 ug/mL
Whole data set: some 2,900 compounds, median “IRF Lucia reporter activity, fold change vs agonist alone” near 0.9, cut for the highest 2% near 2.8. This excerpt belongs to a sample that is enriched for the highest values.
endpointName: IRF Lucia reporter activity

- COC(=O)NC(C(=O)N1CCCC1C(=O)Nc1ccc(C2CCC(c3ccc(NC(=O)C4CCCN4C(=O)C(NC(=O)OC)C(C)C)cc3)N2c2ccc(C(C)(C)C)cc2)cc1)C(C)C (configuration not stated) (library stock concentration (final ~1000-fold dilution): 10 mM): 0.995
- COCC1CC(c2ncc(-c3ccc4c(c3)COc3cc5c(ccc6[nH]c(C7CCC(C)N7C(=O)C(NC(=O)OC)C(C)C)nc65)cc3-4)[nH]2)N(C(=O)C(NC(=O)OC)c2ccccc2)C1 (configuration not stated) (library stock concentration (final ~1000-fold dilution): 10 mM): 0.767

---

Below: a set of entries, each annotated with reported IRF Lucia reporter activity.
test system: RAW-Dual; assay: IRF Lucia reporter activity, fold change vs agonist alone; cytotoxicity flag (confluency mask): not cytotoxic; higher = enhanced IRF activity; settings: agonist: 3'3'-cGAMP (STING) 10 ug/mL
The full ranking holds about 2,900 compounds; the median of “IRF Lucia reporter activity, fold change vs agonist alone” is about 0.9, and the highest 2% start at about 2.8. This is one part of a sample in which the highest values are shown more often than they occur.
endpointName: IRF Lucia reporter activity

• CC(C)(O)CNc1nc(Nc2ccnc(C(F)(F)F)c2)nc(-c2cccc(C(F)(F)F)n2)n1 (library stock concentration (final ~1000-fold dilution): 10 mM) = 1
• CC(N)C1CCC(C(=O)Nc2ccncc2)CC1.Cl.Cl (stereo not drawn) (library stock concentration (final ~1000-fold dilution): 10 mM) = 0.926
• CCOc1nc2cccc(C(=O)OCc3oc(=O)oc3C)c2n1Cc1ccc(-c2ccccc2-c2nc(=O)o[nH]2)cc1 (library stock concentration (final ~1000-fold dilution): 10 mM) = 1.04

All figures here come from the supplement of paper PMC10037445.
